# Tested on: HCC-2998 colon
# MEASUREMENT NOTES: NCI tumour cell line growth inhibition, 48 h
QUANTITY NAME: TGI

{"columns": ["COMPOUND", "MEASURED TARGET", "QUANTITY NAME", "RESULT"],
 "data": [
  ["Nc1c(S(N)(=O)=O)cc(S(N)(=O)=O)cc1S(N)(=O)=O", "HCC-2998 colon", "TGI", "> 100 µM"],
  ["O=C1[C@@H](c2ccc(Cl)cc2)[C@H]2CC=C[C@H]2N1O", "HCC-2998 colon", "TGI", "> 100 µM"],
  ["CC1=C(C(=O)NC2CCCCC2)CC(C(=O)NC2CCCCC2)=C(C)N1", "HCC-2998 colon", "TGI", "> 100 µM"],
  ["O=C1CC(c2ccccc2Cl)C2(C(=O)NC(=O)NC2=O)C(c2ccccc2Cl)C1 (stereo not given)", "HCC-2998 colon", "TGI", "> 100 µM"]
]}

Now consider a different compound.
Record request: TGI value, item C[n+]1cc2c3c(ccc2c2ccc4cc5c(cc4c21)OCO5)OCO3
2.92 µM

----------
# System: M14 melanoma
# MEASUREMENT NOTES: NCI tumour cell line growth inhibition, 48 h
Lab note: compare TGI against 20 µM. Equal or greater, write 1.0. Smaller, write 0.0.

{"columns": ["MOLECULE", "CLASS"],
 "data": [
  ["Cc1ccc(C(=O)Nc2ccc(CN3CCN(C)CC3)c(C(F)(F)F)c2)cc1C#Cc1cnc(N)c2ccc(F)cc12", 0.0],
  ["COc1ccc2nc(-c3ccccc3)cc(Nc3cccc(/C(C)=N\\O)c3)c2c1", 1.0],
  ["CCOc1ccc(NCC2CC/C(=C\\C=C\\c3ccccc3)C2=O)cc1 (configuration not stated)", 1.0]
]}

Given NC(N)=NS(=O)(=O)c1ccc(NC(=O)c2cccc3c(NNc4ccc(S(N)(=O)=O)cc4)c4ccccc4nc23)cc1 , state whether its TGI is at least 20 µM.
1.0

Given C=C1C[C@@H]2CC[C@@]34C[C@H]5O[C@H]6[C@@H](O3)[C@H]3O[C@H](CC[C@@H]3O[C@H]6[C@H]5O4)CC(=O)C[C@@H]3[C@@H](OC)[C@@H](C[C@H](O)CN)O[C@H]3C[C@H]3O[C@@H](CC[C@@H]1O2)C[C@@H](C)C3=C , state whether its TGI is at least 20 µM.
0.0

----------
# System: KM12 colon
# MEASUREMENT NOTES: NCI tumour cell line growth inhibition, 48 h
QUANTITY NAME: GI50

{"columns": ["MOLECULE", "MEASURED TARGET", "GI50"],
 "data": [
  ["COc1cc(Nc2ccnc(N3CCN(c4ccnc5cc(Cl)ccc45)CC3)n2)cc(OC)c1", "KM12 colon", "0.101 µM"],
  ["C[C@]12CC[C@@H]3c4ccc(O)c([N+](=O)[O-])c4CC[C@H]3[C@@H]1CC[C@@H]2NS(=O)(=O)c1ccc(C(F)(F)F)cc1", "KM12 colon", "1.76 µM"],
  ["COc1cc2cc(Oc3ccc(NC(=O)c4cccc(C(F)(F)F)c4)cc3)c(C)nc2cc1OC", "KM12 colon", "4.03 µM"],
  ["CC(C)N(C(C)C)[PH+]1O[PH+](N(C(C)C)C(C)C)O[PH+](N(C(C)C)C(C)C)O[PH+](N(C(C)C)C(C)C)O[PH+](N(C(C)C)C(C)C)O1.[C-]#[O+].[C-]#[O+].[C-]#[O+].[C-]#[O+].[C-]#[O+].[C-]#[O+].[C-]#[O+].[Cr].[Cr] (configuration not stated)", "KM12 colon", "> 100 µM"],
  ["Cc1ccc(C(=O)Nc2ccc(CN3CCN(C)CC3)c(C(F)(F)F)c2)cc1C#Cc1cnc(N)c2ccc(F)cc12", "KM12 colon", "0.186 µM"],
  ["CCN(c1ccc(CO)c(Cl)c1)C(C)c1ccc(F)cc1 (configuration not stated)", "KM12 colon", "17 µM"]
]}

Now consider a different molecule.
Record request: GI50 value, item C/C(=N\O)c1ccc(Nc2cc(-n3nnc4ccccc43)nc3ccccc23)cc1
2.98 µM

----------
# System: SK-OV-3 ovarian
# MEASUREMENT NOTES: NCI tumour cell line growth inhibition, 48 h
Overview of reported TGI across a group of molecules:
Use µM as the unit, but write only the number.

Below, each entry is followed by its recorded TGI result.
{"columns": ["MOLECULE", "QUANTITY NAME", "RESULT NUMBER"],
 "data": [
  ["NCCN(CCN(C(=O)Nc1ccccc1)c1ccccc1)C(=O)Nc1ccccc1", "TGI", 44.9],
  ["COC1/C=C/OC2(C)Oc3c(C)c(O)c4c(c3C2=O)C(=O)C=C(NC(=O)/C(C)=C\\C=C\\C(C)C(OC=O)C(C)C(O)C(C)C(OC(C)=O)C1C)C4=O (stereo not drawn)", "TGI", 56.7]
]}

Record request: TGI value, item CC1(C)N=C(N)N=C(N)N1c1ccc(CCc2ccccc2)c(Cl)c1
18.4

Record request: TGI value, item C#C[C@]1(O)CC[C@H]2[C@@H]3CC=C4c5nc(Nc6ccccn6)sc5CC[C@]4(C)[C@H]3CC[C@@]21C
5.29

----------
# System: OVCAR-8 ovarian
# MEASUREMENT NOTES: NCI tumour cell line growth inhibition, 48 h
QUANTITY NAME: GI50

Below, each entry is followed by its recorded GI50 result.
{"columns": ["COMPOUND", "MEASURED TARGET", "GI50"],
 "data": [
  ["Nc1cc(N)c2nc(-c3ccccc3)c(Oc3ccc(F)cc3)nc2c1", "OVCAR-8 ovarian", "22.5 µM"],
  ["C#C[C@]1(O)CC[C@H]2[C@@H]3CC=C4c5nc(Nc6ccccn6)sc5CC[C@]4(C)[C@H]3CC[C@@]21C", "OVCAR-8 ovarian", "1.77 µM"],
  ["S=C(N/N=C/c1cc(Cl)cc(Cl)c1)NC12CC3CC(CC(C3)C1)C2", "OVCAR-8 ovarian", "4.87 µM"],
  ["CSc1ccc(/C=C2\\CNC/C(=C\\c3ccc(SC)cc3)C2=O)cc1", "OVCAR-8 ovarian", "116 µg/mL"],
  ["N/C(=N\\OC(=O)c1ccccc1)C(C(=O)NOC(=O)c1ccccc1)C1CCCCC1 (configuration not stated)", "OVCAR-8 ovarian", "3.38 µM"],
  ["CSc1ccc(C2=Nn3c(nnc3-c3ccc(F)c(Cl)c3)SC2)cc1", "OVCAR-8 ovarian", "22.2 µM"]
]}

Now consider a different compound.
Record request: GI50 value, item C[n+]1cc2c3c(ccc2c2ccc4cc5c(cc4c21)OCO5)OCO3
0.326 µM

----------
# Test system: DMS 114 small cell lung
# MEASUREMENT NOTES: NCI tumour cell line growth inhibition, 48 h
Lab note: compare TGI against 20 µM. Equal or greater, write Criterion met. Smaller, write Criterion not met.

Here are 6 compounds together with their reported answers.
{"columns": ["COMPOUND", "CLASS"],
 "data": [
  ["O=C(C(=O)c1ccc(Cc2ccc(C(=O)C(=O)c3ccccc3)cc2)cc1)c1ccccc1", "Criterion met"],
  ["COC(=O)c1ccc2c(c1)C(NC(C)=O)CCc1cc(OC)c(OC)c(OC)c1-2 (configuration not stated)", "Criterion not met"],
  ["Fc1cccc(Cl)c1C1SCc2nc3ccccc3n21 (configuration not stated)", "Criterion met"],
  ["Cc1cc([N+](=O)[O-])c(C)c2c1[nH]c1ccc(/C(CCC3CCCC3)=N\\N)cc12", "Criterion met"],
  ["COc1ccc(C(C2=C(C)C(=O)c3ccccc3C2=O)c2ccc(C(C)C)cc(=O)c2O)cc1 (configuration not stated)", "Criterion not met"],
  ["Cc1cc(O)c2c(c1)C(O)(c1ccc3c(c1O)C(=O)c1c(O)cc(C)cc1C3(O)C1OC(CO)C(O)C(O)C1O)c1cccc(O)c1C2=O (configuration not stated)", "Criterion met"]
]}

Field: next compound
Given CC(C)N(C(C)C)[PH+]1O[PH+](N(C(C)C)C(C)C)O[PH+](N(C(C)C)C(C)C)O[PH+](N(C(C)C)C(C)C)O[PH+](N(C(C)C)C(C)C)O1.[C-]#[O+].[C-]#[O+].[C-]#[O+].[C-]#[O+].[C-]#[O+].[C-]#[O+].[C-]#[O+].[Cr].[Cr] (configuration not stated) , state whether its TGI is at least 20 µM.
Criterion met

----------
Overview of reported TGI across a group of compounds:
# System: UACC-62 melanoma
# MEASUREMENT NOTES: NCI tumour cell line growth inhibition, 48 h
Peptide text beside a SMILES is read from it. * marks the point of attachment. X26 = Clc1c(Cl)c(Cl)c(O*)c(Cl)c1Cl; Boc = CC(C)(C)OC(=O)*; OBn = c1ccc(CO*)cc1; Bn = c1ccc(C*)cc1

{"columns": ["COMPOUND", "TGI"],
 "data": [
  ["O=C(CCc1nc(=S)[nH][nH]1)NC12CC3CC(CC(C3)C1)C2", "> 100 µM"],
  ["S=C(N/N=C/c1cc(Cl)cc(Cl)c1)NC12CC3CC(CC(C3)C1)C2", "> 100 µM"],
  ["COc1cc(/C=C2\\CN(C)CC3=C2Nc2nc(SC)[nH]c(=O)c2C3c2cc(OC)c(OC)c(OC)c2)cc(OC)c1OC (centres undefined)", "5.11 µM"],
  ["CC(=O)OC1CC2(O)C(CCC3(C)C(c4ccc(=O)oc4)CCC32O)C2(C)C1=CC(O)C1OC12 (centres undefined)", "0.117 µM"],
  ["Nc1nc2c(ncn2Cc2ccccc2CCO)c(=O)[nH]1", "> 100 µM"],
  ["C=C(C)[C@H]1CC(=O)/C(C)=C\\CC/C(C)=C/CC[C@@]2(C)O[C@@H]2C1", "26.2 µM"],
  ["O=C(CC(C(=O)c1cccs1)c1ccc2c(c1)OCO2)c1ccc(Br)cc1 (centres undefined)", "> 100 µM"],
  ["C[N+]1(CCN=C=NC2CCCCC2)CCOCC1", "> 100 µM"],
  ["CC(C)CC(NC(=O)C(CCC(=O)OCc1ccccc1)NC(=O)OC(C)(C)C)C(=O)NC(COCc1ccccc1)C(=O)NC(Cc1ccccc1)C(=O)Oc1c(Cl)c(Cl)c(Cl)c(Cl)c1Cl (centres undefined) (Boc-E(OBn)LS(Bn)F-X26; configuration not given here)", "44.4 µM"],
  ["Cc1cc2c(cc1C)NC1=C(N2)OC(c2c[nH]c3ccc(COc4ccccc4)cc23)C1=O (centres undefined)", "> 100 µM"]
]}

Now consider a different compound.
Record request: TGI value, item CC(C)c1ccc2nc3ccc(C(=O)NCCN(C)C)cn3c(=O)c2c1
32.3 µM
